Record form. Attribute: TGI. Fill in for each entry.
System: UACC-62 melanoma
EXPERIMENTAL_DETAILS: NCI tumour cell line growth inhibition, 48 h
A number alone suffices; assume µM.

Reported TGI for CC1=C(C(=O)Nc2ccccc2)C(c2ccccc2Cl)C(C(=O)Nc2ccccc2)=C(C)N1 was 27.2

Form field TGI, entry O=C1/C(=C/c2cccc3ccccc23)CCc2ccc([N+](=O)[O-])cc21 : 65.8

Value of measured TGI for the entry CN=C1C=CC(=C(c2ccc(N(C)C)cc2)c2ccc(N(C)C)cc2)C=C1 : 1.39

----------
Tested on: MDA-MB-231 breast
EXPERIMENTAL_DETAILS: NCI tumour cell line growth inhibition, 48 h
TEST_READOUT: TGI

# compound CC1(C)C=C(/C=N/Nc2ccccc2)C(C#N)=C(O)C1(C#N)C#N ; its TGI = > 100 µM

Documented TGI of S=C1Cc2c(-c3ccc(Br)cc3)cc(-c3ccccc3)nc2-c2ccccc2N1 : 3.72 µM

For reference, reported TGI for COc1nc(C#CC2CCCCC2)nc(OC)n1 stands at 13.2 µM

Item: NC(N)=NC1C(O)C(O)C(O)C(N=C(N)N)C1O (stereo not drawn) | TGI: > 100 µM

The reported TGI of the compound O=C(O)c1cccc(NC(C(=O)c2ccccc2)c2ccccc2)c1 (stereo not drawn) was > 100 µM

What the record says about CC(CNC(N)=O)NC(N)=O (stereo not drawn) : TGI is > 100 µM

For Cc1ccc(S(=O)(=O)NC(=O)C2=C3SCCN3C(=O)N(S(=O)(=O)c3ccc(C)cc3)C2c2ccccc2)cc1 (stereo not drawn) the compound record lists TGI as > 100 µM

TGI recorded for this compound, CC(C)CCOC(=O)NC(Nc1ccc(F)cc1)(C(F)(F)F)C(F)(F)F , is 76.1 µM

Sample CN1Cc2ccccc2/C=C\c2ccccc21 ; TGI observed: > 100 µM

Just so you know, measured TGI for Cc1ccc([N+](=O)[O-])c2c(NCCNC(=O)c3cc(C(=O)NCCNc4ccnc5c(C)ccc([N+](=O)[O-])c45)n(C)n3)ccnc12 came out at > 84.8 µM

Sample O=C(O)/C(Cc1cn[nH]n1)=N\O ; TGI observed: > 100 µM

Documented TGI of CCOC(=O)C(Cc1ccc(N(CCCl)CCCl)cc1)NC(=O)C(Cc1ccccc1)NC=O (stereo not drawn) : 0.344 µM

Reported TGI ( Cc1ncc(COP(=O)(O)O)c(/C=C2\SC(=S)NC2=O)c1O ) = > 100 µM

# TGI (compound: CC(C)OC(=S)Nc1ccc(Cl)c(/C=N/OC(C)(C)C)c1 ) is 31.5 µM

Looking up O=C(O)/C(Cc1ccnc2ccccc12)=N\O , I found its TGI recorded as > 100 µM

Looking up CCCCCCCCCCCCC(O)c1ccco1 (stereo not drawn) , I see its TGI listed as 32.7 µM

Entry CC(C)(C)OC(=O)c1ccc(NCC2=C(Br)C(=O)C=CC2=O)cc1 ; TGI = 47 µM

Lab note: CC(=O)OC[C@H]1On2nnnc2[C@H](OC(C)=O)[C@@H](OC(C)=O)[C@@H]1OC(C)=O gave TGI of > 100 µM

Sure, the documented TGI for Cc1ccccc1NC(=O)CC(=O)NNC(Sc1ccccc1)c1cc(N=Nc2ccc(Br)cc2)ccc1O (stereo not drawn) is 6.05 µM

Note to self: TGI recorded for COc1cccc2cc(N(C)c3nc(C)nc4c3CCC4)ccc12 was 14.7 µM

// TGI value for O=C(O)c1ccccc1C1c2ccccc2Oc2ccccc21 : > 100 µM

Entry CCOC(=O)Nc1ccc(S(=O)(=O)Nn2cnnc2)cc1 , TGI reported as > 100 µM

Lookup result for Clc1cc(Cl)ncn1 ; measured TGI: > 100 µM
